Where do the numbers come from? From BigSolDB 2.1.

Test Conditions: in NMP, 308.15 K
Readout: solubility (mole fraction)

Query: // solubility (mole fraction) lookup, key: O=c1nc[nH]c2[nH]ncc12
Response: 0.032

* * *

Test Conditions: in n-propanol, 313.15 K
Readout: solubility (mole fraction)
Numbers only.

Query: // solubility (mole fraction) lookup, key: O=c1nc[nH]c2[nH]ncc12
Response: 0.000201

* * *

Test Conditions: in ethanol, 283.15 K
Readout: solubility (mole fraction)

Query: // solubility (mole fraction) lookup, key: O=c1nc[nH]c2[nH]ncc12
Response: 3.28e-05

* * *

Test Conditions: in water, 328.15 K
Readout: solubility (mole fraction)
One number for each entry.

Query: // solubility (mole fraction) lookup, key: O=c1nc[nH]c2[nH]ncc12
Response: 0.000134

* * *

Test Conditions: in NMP, 293.15 K
Readout: solubility (mole fraction)
Answers are plain numbers.

Query: // solubility (mole fraction) lookup, key: O=c1nc[nH]c2[nH]ncc12
Response: 0.022

* * *

Test Conditions: in water, 303.15 K
Readout: solubility (mole fraction)
Numbers only.

Query: // solubility (mole fraction) lookup, key: O=c1nc[nH]c2[nH]ncc12
Response: 3.83e-05

* * *

Test Conditions: in n-butanol, 288.15 K
Readout: solubility (mole fraction)
Answers are plain numbers.

Query: // solubility (mole fraction) lookup, key: O=c1nc[nH]c2[nH]ncc12
Response: 0.0001

* * *

Test Conditions: in isopropanol, 278.15 K
Readout: solubility (mole fraction)

Query: // solubility (mole fraction) lookup, key: O=c1nc[nH]c2[nH]ncc12
Response: 3.64e-05

* * *

Test Conditions: in NMP, 303.15 K
Readout: solubility (mole fraction)

Query: // solubility (mole fraction) lookup, key: O=c1nc[nH]c2[nH]ncc12
Response: 0.0281

* * *

Test Conditions: in isopropanol, 298.15 K
Readout: solubility (mole fraction)

Query: // solubility (mole fraction) lookup, key: O=c1nc[nH]c2[nH]ncc12
Response: 9.2e-05

* * *

Test Conditions: in NMP, 318.15 K
Readout: solubility (mole fraction)
Numbers only.

Query: // solubility (mole fraction) lookup, key: O=c1nc[nH]c2[nH]ncc12
Response: 0.0391

* * *

Test Conditions: in n-heptanol, 283.15 K
Readout: solubility (mole fraction)
Give bare numbers.

Query: // solubility (mole fraction) lookup, key: O=c1nc[nH]c2[nH]ncc12
Response: 0.000149

* * *

Test Conditions: in acetone, 283.15 K
Readout: solubility (mole fraction)
Answers are plain numbers.

Query: // solubility (mole fraction) lookup, key: O=c1nc[nH]c2[nH]ncc12
Response: 0.000797

* * *

Test Conditions: in n-propanol, 283.15 K
Readout: solubility (mole fraction)
Numbers only.

Query: // solubility (mole fraction) lookup, key: O=c1nc[nH]c2[nH]ncc12
Response: 6.16e-05

* * *

Test Conditions: in methanol, 318.15 K
Readout: solubility (mole fraction)

Query: // solubility (mole fraction) lookup, key: O=c1nc[nH]c2[nH]ncc12
Response: 0.000152

* * *

Test Conditions: in 2-butanone, 283.15 K
Readout: solubility (mole fraction)
Numbers only.

Query: // solubility (mole fraction) lookup, key: O=c1nc[nH]c2[nH]ncc12
Response: 0.000954

* * *

Test Conditions: in n-hexanol, 318.15 K
Readout: solubility (mole fraction)
One number for each entry.

Query: // solubility (mole fraction) lookup, key: O=c1nc[nH]c2[nH]ncc12
Response: 0.00036

* * *

Test Conditions: in ethanol, 323.15 K
Readout: solubility (mole fraction)
Give bare numbers.

Query: // solubility (mole fraction) lookup, key: O=c1nc[nH]c2[nH]ncc12
Response: 0.000211

* * *

Test Conditions: in cyclohexane, 303.15 K
Readout: solubility (mole fraction)
Give bare numbers.

Query: // solubility (mole fraction) lookup, key: O=c1nc[nH]c2[nH]ncc12
Response: 1.24e-06

* * *

Test Conditions: in acetone, 313.15 K
Readout: solubility (mole fraction)

Query: // solubility (mole fraction) lookup, key: O=c1nc[nH]c2[nH]ncc12
Response: 0.00231

* * *

Test Conditions: in cyclohexane, 313.15 K
Readout: solubility (mole fraction)
Numbers only.

Query: // solubility (mole fraction) lookup, key: O=c1nc[nH]c2[nH]ncc12
Response: 1.97e-06

* * *

Test Conditions: in n-butanol, 318.15 K
Readout: solubility (mole fraction)
Answers are plain numbers.

Query: // solubility (mole fraction) lookup, key: O=c1nc[nH]c2[nH]ncc12
Response: 0.000312

* * *

Test Conditions: in n-heptanol, 278.15 K
Readout: solubility (mole fraction)
Numbers only.

Query: // solubility (mole fraction) lookup, key: O=c1nc[nH]c2[nH]ncc12
Response: 0.000127

* * *

Test Conditions: in DMF, 308.15 K
Readout: solubility (mole fraction)
Give bare numbers.

Query: // solubility (mole fraction) lookup, key: O=c1nc[nH]c2[nH]ncc12
Response: 0.00591

* * *

Test Conditions: in isopropanol, 318.15 K
Readout: solubility (mole fraction)
Give bare numbers.

Query: // solubility (mole fraction) lookup, key: O=c1nc[nH]c2[nH]ncc12
Response: 0.000204

* * *

Test Conditions: in acetonitrile, 283.15 K
Readout: solubility (mole fraction)
One number for each entry.

Query: // solubility (mole fraction) lookup, key: O=c1nc[nH]c2[nH]ncc12
Response: 0.000117

* * *

Test Conditions: in acetone, 318.15 K
Readout: solubility (mole fraction)

Query: // solubility (mole fraction) lookup, key: O=c1nc[nH]c2[nH]ncc12
Response: 0.0027

* * *

Test Conditions: in DMF, 283.15 K
Readout: solubility (mole fraction)
Answers are plain numbers.

Query: // solubility (mole fraction) lookup, key: O=c1nc[nH]c2[nH]ncc12
Response: 0.00266

* * *

Test Conditions: in 1,4-dioxane, 298.15 K
Readout: solubility (mole fraction)
One number for each entry.

Query: // solubility (mole fraction) lookup, key: O=c1nc[nH]c2[nH]ncc12
Response: 5.74e-05

* * *

Test Conditions: in water, 333.15 K
Readout: solubility (mole fraction)
Numbers only.

Query: // solubility (mole fraction) lookup, key: O=c1nc[nH]c2[nH]ncc12
Response: 0.000167

* * *

Test Conditions: in isopropanol, 333.15 K
Readout: solubility (mole fraction)
Numbers only.

Query: // solubility (mole fraction) lookup, key: O=c1nc[nH]c2[nH]ncc12
Response: 0.000346

* * *

Test Conditions: in 1,4-dioxane, 318.15 K
Readout: solubility (mole fraction)

Query: // solubility (mole fraction) lookup, key: O=c1nc[nH]c2[nH]ncc12
Response: 0.000123

* * *

Test Conditions: in n-hexanol, 283.15 K
Readout: solubility (mole fraction)
One number for each entry.

Query: // solubility (mole fraction) lookup, key: O=c1nc[nH]c2[nH]ncc12
Response: 9.84e-05

* * *

Test Conditions: in water, 323.15 K
Readout: solubility (mole fraction)
One number for each entry.

Query: // solubility (mole fraction) lookup, key: O=c1nc[nH]c2[nH]ncc12
Response: 0.000107

* * *

Test Conditions: in ethanol, 303.15 K
Readout: solubility (mole fraction)
One number for each entry.

Query: // solubility (mole fraction) lookup, key: O=c1nc[nH]c2[nH]ncc12
Response: 8.97e-05

* * *

Test Conditions: in n-butanol, 328.15 K
Readout: solubility (mole fraction)
Answers are plain numbers.

Query: // solubility (mole fraction) lookup, key: O=c1nc[nH]c2[nH]ncc12
Response: 0.000429

* * *

Test Conditions: in n-propanol, 328.15 K
Readout: solubility (mole fraction)
One number for each entry.

Query: // solubility (mole fraction) lookup, key: O=c1nc[nH]c2[nH]ncc12
Response: 0.000349

* * *

Test Conditions: in n-hexanol, 288.15 K
Readout: solubility (mole fraction)
One number for each entry.

Query: // solubility (mole fraction) lookup, key: O=c1nc[nH]c2[nH]ncc12
Response: 0.000119

* * *

Test Conditions: in n-hexanol, 298.15 K
Readout: solubility (mole fraction)
One number for each entry.

Query: // solubility (mole fraction) lookup, key: O=c1nc[nH]c2[nH]ncc12
Response: 0.000177

* * *

Test Conditions: in 1,4-dioxane, 313.15 K
Readout: solubility (mole fraction)
One number for each entry.

Query: // solubility (mole fraction) lookup, key: O=c1nc[nH]c2[nH]ncc12
Response: 0.000102

* * *

Test Conditions: in acetonitrile, 328.15 K
Readout: solubility (mole fraction)
Numbers only.

Query: // solubility (mole fraction) lookup, key: O=c1nc[nH]c2[nH]ncc12
Response: 0.000522

* * *

Test Conditions: in ethanol, 298.15 K
Readout: solubility (mole fraction)
Numbers only.

Query: // solubility (mole fraction) lookup, key: O=c1nc[nH]c2[nH]ncc12
Response: 6.99e-05

* * *

Test Conditions: in ethanol, 293.15 K
Readout: solubility (mole fraction)

Query: // solubility (mole fraction) lookup, key: O=c1nc[nH]c2[nH]ncc12
Response: 5.5e-05

* * *

Test Conditions: in NMP, 298.15 K
Readout: solubility (mole fraction)

Query: // solubility (mole fraction) lookup, key: O=c1nc[nH]c2[nH]ncc12
Response: 0.0251
